pIC50 overview
# System: Plasmodium falciparum
# measurement notes: Antimalarial activity against chloroquine-resistant Plasmodium falciparum W2 after 48 hrs by flow cytometry
# Format: functional, organism-based
# condition summary: W2, 48 h
pIC50: −log10 of the molar value.

molecule: O=C1C(O)c2cc(Cl)ccc2N1CCn1cc(COc2ccc(CNNc3ccnc4cc(Cl)ccc34)cc2)nn1 (stereo not drawn)
target or system: Plasmodium falciparum
censoring operator: =
pIC50: 6.74
//
molecule: O=Cc1ccc(OCc2cn(CCN3C(=O)C(=O)c4cc(Cl)ccc43)nn2)cc1
target or system: Plasmodium falciparum
censoring operator: <
pIC50: 5.00
//
molecule: O=Cc1ccc(OCc2cn(CCN3C(=O)C(=O)c4cc(F)ccc43)nn2)cc1
target or system: Plasmodium falciparum
censoring operator: <
pIC50: 5.00
//
molecule: O=C1C(=O)N(CCCCn2cc(COc3ccc(/C=N/Nc4ccnc5cc(Cl)ccc45)cc3)nn2)c2ccc(Cl)cc21
target or system: Plasmodium falciparum
censoring operator: =
pIC50: 6.85
//
molecule: O=C1C(=O)N(CCn2cc(COc3ccc(/C=N/Nc4ccnc5cc(Cl)ccc45)cc3)nn2)c2ccc(Cl)cc21
target or system: Plasmodium falciparum
censoring operator: =
pIC50: 6.58
//
molecule: O=C1C(O)c2cc(Cl)ccc2N1CCCn1cc(COc2ccc(CNNc3ccnc4cc(Cl)ccc34)cc2)nn1 (stereo not drawn)
target or system: Plasmodium falciparum
censoring operator: =
pIC50: 6.46
//
molecule: O=C1C(=O)N(CCCCn2cc(COc3ccc(/C=N/Nc4ccnc5cc(Cl)ccc45)cc3)nn2)c2ccccc21
target or system: Plasmodium falciparum
censoring operator: =
pIC50: 6.92
//
molecule: O=Cc1ccc(OCc2cn(CCCN3C(=O)C(=O)c4cc(F)ccc43)nn2)cc1
target or system: Plasmodium falciparum
censoring operator: <
pIC50: 5.00
//
molecule: O=C1C(O)c2cc(Cl)ccc2N1CCCCn1cc(COc2ccc(CNNc3ccnc4cc(Cl)ccc34)cc2)nn1 (stereo not drawn)
target or system: Plasmodium falciparum
censoring operator: =
pIC50: 6.77
//
molecule: O=Cc1ccc(OCc2cn(CCCCN3C(=O)C(=O)c4ccccc43)nn2)cc1
target or system: Plasmodium falciparum
censoring operator: <
pIC50: 5.00
//
molecule: Cc1ccc2c(c1)C(=O)C(=O)N2CCn1cc(COc2ccc(C=O)cc2)nn1
target or system: Plasmodium falciparum
censoring operator: <
pIC50: 5.00
//
molecule: O=Cc1ccc(OCc2cn(CCCCN3C(=O)C(=O)c4cc(F)ccc43)nn2)cc1
target or system: Plasmodium falciparum
censoring operator: <
pIC50: 5.00
//
molecule: O=Cc1ccc(OCc2cn(CCCCN3C(=O)C(=O)c4cc(Cl)ccc43)nn2)cc1
target or system: Plasmodium falciparum
censoring operator: <
pIC50: 5.00
//
molecule: O=C1C(=O)N(CCn2cc(COc3ccc(/C=N/Nc4ccnc5cc(Cl)ccc45)cc3)nn2)c2ccc(F)cc21
target or system: Plasmodium falciparum
censoring operator: =
pIC50: 6.72
//
molecule: Cc1ccc2c(c1)C(=O)C(=O)N2CCn1cc(COc2ccc(/C=N/Nc3ccnc4cc(Cl)ccc34)cc2)nn1
target or system: Plasmodium falciparum
censoring operator: =
pIC50: 6.73
//
molecule: Cc1ccc2c(c1)C(O)C(=O)N2CCCCn1cc(COc2ccc(CNNc3ccnc4cc(Cl)ccc34)cc2)nn1 (stereo not drawn)
target or system: Plasmodium falciparum
censoring operator: =
pIC50: 6.49
//
molecule: Cc1ccc2c(c1)C(=O)C(=O)N2CCCn1cc(COc2ccc(/C=N/Nc3ccnc4cc(Cl)ccc34)cc2)nn1
target or system: Plasmodium falciparum
censoring operator: =
pIC50: 6.79
//
molecule: Cc1ccc2c(c1)C(=O)C(=O)N2CCCCn1cc(COc2ccc(C=O)cc2)nn1
target or system: Plasmodium falciparum
censoring operator: =
pIC50: 5.19
